assay: blockers of DNA damage checkpoint Chk1 activation – imaging, HeLa, hydroxyurea, phospho-Chk1 nuclear intensity, primary screen (AID 1187); conditions: hydroxyurea-induced phospho-Chk1 immunofluorescence imaging, higher = more signal; also: test concentration not given here
I'd appreciate it if you could supply z-score values for the items below.
Numbers only.

Some compounds with known z-score results, for comparison:
C=CC[C@@]1(C(=O)OC)N=C(c2ccc(OCCCO)cc2)O[C@@H]1c1ccccc1N=[N+]=[N-]
0.0948
CCCc1cc2c(n1CCc1ccc(Cl)cc1)C(C)C1CN(C(=O)c3ccccc3)C(C)(C(=O)OC)C21 (stereo not given)
0.692
CCOC(=O)C1=C[C@@H](C(C)(C)C)N(S(=O)(=O)c2ccc(C)cc2)[C@H]1c1ccc(C#N)cc1
1.21

Could you tell me z-score for each of these compounds? They are listed below.
1. COc1ccc([Si](C)(C)[C@H]2[C@H](CCO)O[C@@]3(C(=O)N(Cc4ccc(NC(=O)[C@H](C)O)cc4)c4ccccc43)[C@@H]2C)cc1
2. CCCC#C[Si](O[C@H](CC)c1cn(Cc2ccccc2)nn1)(C(C)C)C(C)C
3. COc1ccc([Si](C)(C)[C@@H]2[C@@H](CC(=O)N3Cc4ccccc4C[C@H]3CO)O[C@]3(C(=O)N(Cc4cccc(N5CCOC5=O)c4)c4ccccc43)[C@H]2C)cc1
4. C=C(CCCC)/C(=C/C[C@H](OC(C)=O)c1cccc(OCCO)c1)c1cnc2ccccc2c1
5. CN(C)CCCNC(=O)[C@@]1(Cc2ccccc2I)c2ccccc2C(=O)N(C2CCCCC2)[C@H]1c1ccc(CO)cc1
6. CN(C)CCCNC(=O)[C@@H]1c2ccccc2C(=O)N(Cc2ccccc2C(F)(F)F)[C@H]1c1ccc(CO)cc1
7. CC(C)(C)N1CC=CC23O[C@@H]4/C=C\CCCOC(=O)C4[C@H]2C(=O)N(CCCCCO)[C@@H]3C1=O (stereo not given in full)
8. COC(=O)[C@@]1(Cc2ccc(OC)cc2)[C@H]2c3cc(C(=O)N4CCCC4)n(Cc4c(CO)[nH]cc(C)c4=O)c3C[C@H]2CN1C(=O)c1ccccc1

Result:
-0.43
0.0744
-0.695
-0.761
-0.621
-0.164
0.144
0.0081

Could you tell me z-score for each of these compounds? They are listed below.
1. COc1ccc(NN2C(C(O)c3ccc(I)cc3)C=CC3C(=O)N(C4CCCCC4)C(=O)C32)cc1 (stereo not given)
2. CC(C)C[C@H]1NC(=O)C([C@@H](C)OCc2ccccc2)NC(=O)[C@@]23C(=O)N[C@@H](Cc4ccccc4)C2[C@H](C)[C@@]2(C)O[C@H]2C3/C=C/C/C=C\CNC1=O (stereo not given in full)
3. C[N+](C)(C)CCCCNC(=O)[C@H]1C[C@H]2C(=O)N[C@@H](Cc3ccccc3)C(=O)N2[C@H]1c1cccc(OCCO)c1
4. COC(=O)c1cccc([C@H]2OC(=CC(=O)OC(C)C)C[C@@H](c3cccc(C(=O)OC)c3)O2)c1

Result:
-0.481
-0.732
0.461
-1.39

====

I'd appreciate it if you could supply composite z-score values for the items below.
system: Sonic hedgehog protein (Shh); assay: Sonic hedgehog microarray binding compounds – biochemical, small-molecule microarray, 635/667 nm fluorescence, primary screen (AID 1151); details: 635 nm fluorescence, higher = more signal;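 also: Shh protein binding to compounds spotted on small-molecule microarray slides; score combines spot fluorescence intensity with signal-to-noise across triplicate slides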
Numbers only.

Cc1ccc(N2C(=O)c3ccccc3[C@](C)(C(=O)NCCCN(C)C)[C@@H]2c2ccc(CO)cc2)nc1
-1.01

Could you tell me composite z-score for each of these compounds? They are listed below.
1. CC(C)(C)N1CC=CC23O[C@@H]4C=CCOC(=O)[C@@H]4[C@H]2C(=O)N(CCO)[C@@H]3C1=O (some centres not stated)
2. CN(C)CCCC[C@@H]1NC(=O)[C@@H]2C[C@H](C(=O)NCCCCCCNC(=O)CS)[C@H](c3ccc(O)cc3)N2C1=O
3. CC(=O)c1ccc(C(O)C2C=CC3C(=O)N(c4ccccc4)C(=O)C3N2Nc2ccc(C(C)C)cc2)cc1 (configuration not stated)
4. C=CCC(OC(C)=O)[C@@H]1[C@@H](N(Cc2ccc(-c3cccc(C(F)(F)F)c3)o2)C(=O)Cc2ccc(F)cc2)c2cc(OCCCO)ccc2N1C(=O)Cc1ccc2ccccc2c1 (some centres not stated)
5. COc1ccc([Si](C)(C)[C@@H]2[C@@H](CC(=O)N3CCC[C@H]3CO)O[C@]3(C(=O)N(Cc4ccc(N5CCOC5=O)cc4)c4ccccc43)[C@H]2C)cc1
6. N#Cc1ccc(NN2C(C(O)C3CC=CCC3)C=CC3C(=O)N(c4ccccc4)C(=O)C32)cc1 (configuration not stated)

Result:
1: -0.863; 2: 1.62; 3: 0.295; 4: 0.404; 5: 1.42; 6: 2.08

====

assay: compounds binding Alexa647 anti-His antibody – biochemical, small-molecule microarray, 635 nm fluorescence, artefact control for SMM control protein annotation, primary screen (AID 1128); settings: higher = more signal;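 also: score merges feature fluorescence with signal-to-noise for each printed compound spot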
I'd appreciate it if you could supply composite z-score values for the items below.
Numbers only.

C=CCOC(=O)[C@H]1[C@@H]2C(=O)O[C@@H](c3ccccc3)[C@@H](c3ccccc3)N2[C@@H](c2ccc(OCCOC(=O)[C@@H]3C[C@@H]4C(=O)N[C@@H](CCCCNC(C)=O)C(=O)N4[C@@H]3c3cccc(OCCO)c3)cc2)[C@]12C(=O)Nc1ccccc12
2.81
O=C1NC(=O)C2C1C=CC(C(O)c1ccc(B(O)O)cc1)N2Nc1ccc(Cl)cc1Cl (stereo not drawn)
0.207

# evaluate next
Request: Let me know recorded composite z-score for CC(C)(C)N1CC=CC23O[C@@H]4/C=C\CCCOC(=O)C4[C@H]2C(=O)N(CCCO)[C@@H]3C1=O (stereo partly drawn) , thanks.
Result: 0.343

====

assay: budding yeast growth modifiers under rapamycin – strain BY4716, OD600, 96 h, primary screen (AID 1091); also: test concentration not given here; conditions: S. cerevisiae BY4716 + rapamycin, higher = more signal, called active from +8 up or from −8 down
I'd appreciate it if you could supply z-score values for the items below.
One number for each entry.

Could you tell me z-score for each of these compounds? They are listed below.
1. O=C(NCC(O)CO)[C@@]1(CCS(=O)(=O)c2ccccc2)N=C(c2ccc(OCCCO)cc2)O[C@H]1c1ccccc1 (some centres not stated)
2. CC(=O)c1ccc(C(O)C2C=CC3C(=O)N(c4ccccc4)C(=O)C3N2Nc2ccc(C(C)C)cc2)cc1 (configuration not stated)

Result:
-0.163
-0.0304

====

test: optical density change of DRC41 E. coli – strain DRC41, OD650, 24 h, E. coli filamentation project, primary screen (AID 1093);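 also: MC1000 strain lacking acrAB efflux and sulA so SOS filamentation is blocked; test concentration not given here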; details: E. coli DRC41 growth, higher = more signal, called active from +8 up or from −8 down
Label True for high-side z-score (at or above 0.6) and False for low-side z-score (below it).

Request: For this compound, is measured z-score 0.6 or higher? CC(C)(C)N1CC=CC23O[C@@H]4/C=C\CCCOC(=O)C4[C@H]2C(=O)N(CCCCCO)[C@@H]3C1=O (some centres not stated)
Result: False

Request: For this compound, is measured z-score 0.6 or higher? O=C(NCc1ccc(F)cc1)[C@H]1C[C@H]2C(=O)N3CCC[C@H]3C(=O)N2[C@H]1c1ccc(O)cc1
Result: True

Request: For this compound, is measured z-score 0.6 or higher? COCCCNC(=O)[C@@H]1c2ccccc2C(=O)N(Cc2ccc(OC(F)(F)F)cc2)[C@H]1c1ccc(CO)cc1
Result: False

Request: For this compound, is measured z-score 0.6 or higher? CN(C)CCCNC(=O)[C@@]1(Cc2ccccc2I)c2ccccc2C(=O)N(C2CCCCC2)[C@H]1c1ccc(CO)cc1
Result: False

Request: For this compound, is measured z-score 0.6 or higher? O=C1C2C=CC(C(O)c3c(F)cccc3Cl)N(Nc3ccc([N+](=O)[O-])cc3)C2C(=O)N1c1ccccc1 (configuration not stated)
Result: True

Request: For this compound, is measured z-score 0.6 or higher? COc1ccc([Si](C)(C)[C@H]2[C@H](CCO)O[C@@]3(C(=O)N(Cc4cccc(N5C(=O)c6ccccc6Oc6ccccc65)c4)c4ccccc43)[C@@H]2C)cc1
Result: True

====

system: Human papillomavirus type 1a E7 protein (residues 1-88); assay: HPV1a E7 small-molecule binders, primary screen, biochemical, small-molecule microarray, residues 1-88, 635 nm (AID 1129); conditions: small-molecule microarray binding, fluorescence 635 nm; higher = more signal
I'd appreciate it if you could supply composite z-score values for the items below.
One number for each entry.

Some compounds with known composite z-score results, for comparison:
C=CCOC(=O)[C@H]1[C@@H]2C(=O)O[C@@H](c3ccccc3)[C@@H](c3ccccc3)N2[C@@H](c2ccc(OCCOC(=O)[C@@H]3C[C@@H]4C(=O)N[C@@H](CCCC[N+](C)(C)C)C(=O)N4[C@@H]3c3ccc(O)cc3)cc2)[C@]12C(=O)Nc1ccc(I)cc12
0.377
NC(=O)N1C(=O)C2C(C1=O)C1C=C(CCCO)C2C(C2CC2)N1Cc1sc2ccccc2c1Cl (stereo unspecified)
0.802
C=CCNC(=O)[C@H]1[C@@H]2C(=O)O[C@@H](c3ccccc3)[C@@H](c3ccccc3)N2[C@@H](c2ccc(OCCO)cc2)[C@]12C(=O)Nc1ccccc12
0.905
CCCN1C(=O)[C@]2(CCC(=O)OC(C)(C)C)N=C(c3ccc(OCCCO)cc3)O[C@@H]2c2ccccc21
1.01
COc1cc(CO)cc(I)c1O[C@H]1C=C(C(=O)NCCO)C[C@@H]2O[C@H]12
1.22

# evaluate next
Request: Let me know recorded composite z-score for COC(=O)C(CC#Cc1ccc2c(c1)[C@]1(C(=O)N2)[C@H](c2ccccc2OCCO)N2[C@H](c3ccccc3)[C@H](c3ccccc3)OC(=O)[C@H]2[C@@H]1C(=O)N1CCc2cc(OC)c(OC)cc2C1)C(=O)OC , thanks.
Result: 1.21
